Biological target: T1, PD-1 protein (human, UniProt Q15116 25-167, limits assumed)
T1 construct: also called human PD-1
T1 sequence (Q15116 25-167 limits assumed): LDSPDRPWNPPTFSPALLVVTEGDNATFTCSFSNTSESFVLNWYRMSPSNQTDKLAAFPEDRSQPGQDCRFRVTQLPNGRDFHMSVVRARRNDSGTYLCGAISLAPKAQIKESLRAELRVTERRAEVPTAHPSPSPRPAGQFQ
Assay: blocking ELISA, PD-1 coated, competitor biotin PD-L1
metric: OD450 of PD-L1 bound, antibody at 0.61 µg/mL (OD450)
Provide the reading as a plain figure in OD450.

Which OD450 of PD-L1 bound, antibody at 0.61 µg/mL value is on record for 504#SS1 (Fc fusion, VHH-FC construct from HEK293 cells; not shown: The (G4S)3 linker leading to it is left out with it) VHH: QVQLVESGGGLVQAGGSLRLSCAASGLTFSDFAMGWFRQAPGKEREFVAAISWSGGQTYNVESAKGRFTISRDNAKNTVYLQMNKLKPDDTAVYYCAASTMVVTTVAADYKYWGQGTQVTVSS ?
3.15

Which OD450 of PD-L1 bound, antibody at 0.61 µg/mL value is on record for 504#SS5 (Fc fusion, VHH-FC construct from HEK293 cells; not shown: The (G4S)3 linker leading to it is left out with it) VHH: QVQLVESGGGSAQAGGSLRLSCTASGRPFSIYDMGWFRQAPGKERESVAVINLSRGNTYYADSVKGRFTISLDSAKNTVYLQMNSLKPEDTAVYSCGVDRRQYGLGIPPLADYWGQGTQVTVSS ?
1.65

Which OD450 of PD-L1 bound, antibody at 0.61 µg/mL value is on record for 504#SS15 (Fc fusion, not shown: a dimerising Fc or GST; small tags and cut ends, VHH-FC construct from HEK293 cells) VHH: QVQLVESGGGLVQPGGSLRLSCAASGFTFSNYAMTWYRQAPGKERELVAAISSAGYTTTYAGSVKGRFTISRDNAKNTVYLQMNSLNPEDTAVYYCNAGRLSYGGSYYPNDDYWGQGTQVTVSS ?
3.69

Which OD450 of PD-L1 bound, antibody at 0.61 µg/mL value is on record for 504#SS28 (Fc fusion, not shown: a dimerising Fc or GST; small tags and cut ends, VHH-FC construct from HEK293 cells) VHH: QVQLVESGGGSVQPGGSLRLSCAVSGFTLDYYDIGWFRQAPGKERDWISCISSSDGSQYYADSVKDRFFISRDNAKNTVYLQMNSLEPGDTAVYYCAADFDTYRFCSGFGPDAYSSWGQGTQVIVSS ?
3.28

Data provenance: patent US20230002757A1
